The measurements presented in this section are drawn from PubChem BioAssay (Tox21).

# protocolNotes: qHTS assay to identify small molecule agonists of the estrogen related receptor (ERR) signaling pathway from Tox21 library (AID 1224849)
# cond: ERR reporter cell line, ONE-Glo luciferase, 18 h; at 42.5 µM (top of the series)
Values of activity change, positive = activation greater than or equal to -30% map to criterion met; values below map to criterion not met.

Test whether the molecule `C=C(CC)C(=O)c1ccc(OCC(=O)O)c(Cl)c1Cl` records activity change, positive = activation of -30% or higher. criterion met

Test whether the molecule `O=C(O)c1cc(-c2ccc(F)cc2F)ccc1O` records activity change, positive = activation of -30% or higher. criterion met

Test whether the molecule `CN(C)[C@@H](CCOc1cccc2ccccc12)c1ccccc1` records activity change, positive = activation of -30% or higher. criterion met

Test whether the molecule `COc1ccc2cc1Oc1ccc(cc1)C[C@H]1c3c(cc4c(c3Oc3cc5c(cc3OC)CCN(C)[C@@H]5C2)OCO4)CCN1C` records activity change, positive = activation of -30% or higher. criterion not met

Test whether the molecule CC(=O)Oc1cc2c(s1)CCN(C(C(=O)C1CC1)c1ccccc1F)C2 (centres undefined) records activity change, positive = activation of -30% or higher. criterion met

Test whether the molecule `CCCCCCCCCCCCOCCOCCOCCOCCOCCOCCOCCOCCOCCO` records activity change, positive = activation of -30% or higher. criterion not met

Test whether the molecule CCCCC(CC)CN1CN(CC(CC)CCCC)CC(C)(N)C1 (centres undefined) records activity change, positive = activation of -30% or higher. criterion met

Test whether the molecule Cc1c(F)c(N2CCNC(C)C2)cc2c1c(=O)c(C(=O)O)cn2C1CC1 (centres undefined) records activity change, positive = activation of -30% or higher. criterion met

Test whether the molecule `O=S(=O)(O)c1ccc(Nc2nc(Nc3ccc(/C=C/c4ccc(Nc5nc(Nc6ccc(S(=O)(=O)O)cc6)nc(N(CCO)CCO)n5)cc4S(=O)(=O)O)c(S(=O)(=O)O)c3)nc(N(CCO)CCO)n2)cc1` records activity change, positive = activation of -30% or higher. criterion met
